system: SHIP2 catalytic domain (SHIP2cd) (Homo sapiens, UniProt O15357)
Construct: SHIP2 catalytic domain, residues 419–832 in the vector pNIC-MBP
Sequence (O15357 419-832): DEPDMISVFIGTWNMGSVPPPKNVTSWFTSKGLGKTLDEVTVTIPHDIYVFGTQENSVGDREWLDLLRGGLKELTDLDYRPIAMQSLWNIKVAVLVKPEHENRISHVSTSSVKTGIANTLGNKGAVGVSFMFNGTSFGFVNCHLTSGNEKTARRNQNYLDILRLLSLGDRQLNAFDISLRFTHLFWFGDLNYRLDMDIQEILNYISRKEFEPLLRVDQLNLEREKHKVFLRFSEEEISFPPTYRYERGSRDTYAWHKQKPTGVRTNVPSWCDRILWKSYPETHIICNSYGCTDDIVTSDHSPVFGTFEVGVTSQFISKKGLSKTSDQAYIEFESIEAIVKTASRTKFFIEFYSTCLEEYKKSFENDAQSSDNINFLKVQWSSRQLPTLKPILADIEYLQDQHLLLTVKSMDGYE
assayText: Substrate activity: phosphate release from test compounds by SHIP2cd
Type: biochemical
measurementParameters: Figures 7, 8, S7
endpointLabel: SHIP2 catalytic activity (PO4.E-1.s-1)

compound="O=P(O)(O)Oc1cc(OP(=O)(O)O)cc(-c2c(OP(=O)(O)O)cc(OP(=O)(O)O)cc2OP(=O)(O)O)c1 [Compound 1, biphenyl 2,3′,4,5′,6-pentakisphosphate]" endpointlabel="SHIP2 catalytic activity" testresult=0.0108
compound="O=P(O)(O)Oc1ccc(OP(=O)(O)O)c(OP(=O)(O)O)c1 [Compound 18, benzene 1,2,4-trisphosphate]" endpointlabel="SHIP2 catalytic activity" testresult=0.015

Taken from paper PMC7610569.
